- Test system: IgE antibodies from patients
- protocol-description: Wheat epitope mapping (2): overlapping 10-amino-acid peptide fragments shifted by one amino acid;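 as to epitope sequence binding to IgE antibody, rank (Key/Preferably/More preferably): key of grades: preferably = shorter partial sequence still acting as epitope; more preferably = sequence improving IgE binding; key = particularly important sequence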
- Format: binding, human
- experimental-setup: serum of patient G6 (adult, general immediate type allergy to wheat)
outcome-measure: epitope sequence binding to IgE antibody, rank (Key/Preferably/More preferably)

INSERT INTO measurements (substance, assay_result) VALUES
  ('1830 (LPKFL; REGION 1..5: note = epitope) [compound 1830]', 'Key'),
  ('1890 (RTLQ; REGION 1..4: note = epitope) [compound 1890]', 'Key'),
  ('1749 (EAANFT; REGION 1..6: note = epitope) [compound 1749]', 'Key');

###

- System: IgE antibodies from patients
- protocol-description: Wheat epitope mapping (2): overlapping 10-amino-acid peptide fragments shifted by one amino acid;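 as to epitope sequence binding to IgE antibody, rank (Key/Preferably/More preferably): key of grades: preferably = shorter partial sequence still acting as epitope; more preferably = sequence improving IgE binding; key = particularly important sequence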
- Type: binding, human
- experimental-setup: serum of patient P50 (child, general immediate type allergy to wheat)
outcome-measure: epitope sequence binding to IgE antibody, rank (Key/Preferably/More preferably)

INSERT INTO assay_data (substance, assay_result) VALUES
  ('1770 (VSSYLKK; REGION 1..7: note = epitope) [compound 1770]', 'Key'),
  ('1723 (KEAANF; REGION 1..6: note = epitope) [compound 1723]', 'Key'),
  ('1771 (KVGYNP; REGION 1..6: note = epitope) [compound 1771]', 'Key');

###

- Test system: IgE antibodies from patients
- protocol-description: Wheat epitope mapping (2): overlapping 10-amino-acid peptide fragments shifted by one amino acid
- Format: binding, human
- experimental-setup: serum of patient P7 (WDEIA); sequence without X
outcome-measure: Epitope sequence binding to IgE antibody, rank of the sequence

// solved cases for Epitope sequence binding to IgE antibody, rank of the sequence follow
INSERT INTO results (substance, assay_result) VALUES
  ('1216 (PQQPP; REGION 1..5: note = epitope) [compound 1216]', 'Preferably'),
  ('1173 (QQQQFPPQQP; REGION 1..10: note = epitope) [compound 1173]', 'Preferably'),
  ('1374 (PWQQQPLP; REGION 1..8: note = epitope) [compound 1374]', 'Preferably'),
  ('1375 (PWQQQPL; REGION 1..7: note = epitope) [compound 1375]', 'Key');

Proceeding to the next substance to report its Epitope sequence binding to IgE antibody, rank of the sequence.
Would you please give the reported Epitope sequence binding to IgE antibody, rank of the sequence of 1213 (PIQQQPQPFP; REGION 1..10: note = epitope) [compound 1213] with IgE antibodies from patients?
Preferably

###

- System: IgE antibodies from patients
- protocol-description: Wheat epitope mapping (2): overlapping 10-amino-acid peptide fragments shifted by one amino acid;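 as to Rank of partial sequence as epitope binding to IgE antibody: key = sequence deemed particularly important within the common 15-residue sequence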
- Assay type: binding, human
- experimental-setup: serum of patient P36 (WDEIA); sequence without X
outcome-measure: Rank of partial sequence as epitope binding to IgE antibody

// solved cases for Rank of partial sequence as epitope binding to IgE antibody follow
INSERT INTO assay_data (substance, assay_result) VALUES
  ('1492 (YLQPQQPISQ; REGION 1..10: note = epitope) [compound 1492]', 'Preferably'),
  ('1646 (YNPDKVPF; REGION 1..8: note = epitope) [compound 1646]', 'Preferably'),
  ('1648 (FVPISG; REGION 1..6: note = epitope) [compound 1648]', 'Key'),
  ('1493 (YLQPQQPIS; REGION 1..9: note = epitope) [compound 1493]', 'Key');

Proceeding to the next substance to report its Rank of partial sequence as epitope binding to IgE antibody.
State, in one line, measured Rank of partial sequence as epitope binding to IgE antibody of 1647 (YNPD; REGION 1..4: note = epitope) [compound 1647]
Key
